compounds and their reported log10 IC50
target: recombinant human serotonin transporter (Homo sapiens); construct: expressed in transfected cells; host or cells: HEK-293; assay: Serotonin functional uptake assay for human reuptake transporter; format: cell-based; conditions: [3H]serotonin uptake, HEK-293 cells expressing human serotonin transporter; read-out: Human IC50 (nM) SERT
Sequence (P31645 whole entry): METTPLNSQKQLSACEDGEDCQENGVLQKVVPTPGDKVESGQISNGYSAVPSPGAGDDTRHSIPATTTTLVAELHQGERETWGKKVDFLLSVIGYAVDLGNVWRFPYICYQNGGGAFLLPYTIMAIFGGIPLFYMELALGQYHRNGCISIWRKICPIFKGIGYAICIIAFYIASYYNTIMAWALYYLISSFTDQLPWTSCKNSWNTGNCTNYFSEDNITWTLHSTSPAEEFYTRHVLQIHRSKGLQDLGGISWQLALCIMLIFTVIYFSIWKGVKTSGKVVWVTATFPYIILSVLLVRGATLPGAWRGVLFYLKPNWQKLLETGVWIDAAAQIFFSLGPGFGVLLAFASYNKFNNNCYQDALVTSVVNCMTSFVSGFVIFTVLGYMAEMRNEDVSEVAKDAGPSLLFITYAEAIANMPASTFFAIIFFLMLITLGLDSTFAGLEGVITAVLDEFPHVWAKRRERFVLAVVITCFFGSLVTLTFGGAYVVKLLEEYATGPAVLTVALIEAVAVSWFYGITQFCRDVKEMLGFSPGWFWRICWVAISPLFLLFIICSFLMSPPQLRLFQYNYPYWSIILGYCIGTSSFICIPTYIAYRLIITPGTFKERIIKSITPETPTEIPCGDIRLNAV
// stored as log10 of IC50 expressed in nM

In: Recall the recorded log10 IC50 for CN[C@H]1Cc2cc(OC)ccc2[C@@H](c2ccc(Cl)c(Cl)c2)C1 (single isomer, unassigned) [Compound 32c.1] with recombinant human serotonin transporter (Homo sapiens) and state it.
Out: 1.83

In: Could you do the same for CC1C[C@@H](c2ccc(Cl)c(Cl)c2)c2ccccc2/C1=N\O (single isomer, unassigned) [Compound 57] , please?
Out: 3.50

In: Further, for CN(C)[C@H]1CCc2ccccc2[C@H]1c1ccc(Cl)c(Cl)c1 (single isomer, unassigned) [Compound 37b] ?
Out: 2.87

In: // query: CN(C)[C@@H]1c2ccccc2CC[C@@H]1c1ccc(Cl)c(Cl)c1 (single isomer, unassigned) [Compound 41b]
Out: 3.99

In: Now give it for COc1ccc2c(c1)C(c1ccc(Cl)c(Cl)c1)CC(N(C)C)C2 (single isomer, unassigned) [Compound 33a.1] too.
Out: 2.68

In: Try this compound too: CC(N)[C@@H]1Cc2ccccc2[C@H](c2ccc(Cl)c(Cl)c2)C1 (single isomer, unassigned) [Compound 52]
Out: 0.90

In: Now this one: CN[C@@H]1Cc2cccc(OC)c2[C@H](c2ccc(Cl)c(Cl)c2)C1 (single isomer, unassigned) [Compound 32b.2]
Out: 2.49

In: Query CC1(C)C[C@@H](c2ccc(Cl)c(Cl)c2)c2ccccc2C1N (stereo partly shown) [Compound 59] next
Out: 3.74

In: Would you mind doing CN[C@H]1Cc2ccc(OC)cc2[C@@H](c2ccc(Cl)c(Cl)c2)C1 (stereo in doubt) [Compound 32a.3] as well?
Out: 3.64

In: Also check CN(C)[C@H]1CCc2ccccc2[C@H]1c1ccc(Cl)c(Cl)c1 (single isomer, unassigned) [Compound 37d]
Out: 3.50

In: Then CC(C1=Cc2ccccc2[C@H](c2ccc(Cl)c(Cl)c2)C1)N(C)C (stereo partly shown) [Compound 48] ?
Out: 2.13

In: Next: CN[C@H]1Cc2ccc(OC)cc2[C@@H](c2ccc(Cl)c(Cl)c2)C1 (single isomer, unassigned) [Compound 32a.4]
Out: 2.98

---

Each entry below carries its reported IC50.
target: recombinant human norepinephrine transporter (Homo sapiens, UniProt P23975); construct: expressed in transfected cells; host or cells: HEK293 or MDCK; assay: Norepinephrine functional uptake assay for human reuptake transporter; assay type: cell-based; conditions: [3H]norepinephrine uptake, HEK293 or MDCK cells expressing human norepinephrine transporter; read-out: Human IC50 (nM) NET
Sequence (P23975 whole entry): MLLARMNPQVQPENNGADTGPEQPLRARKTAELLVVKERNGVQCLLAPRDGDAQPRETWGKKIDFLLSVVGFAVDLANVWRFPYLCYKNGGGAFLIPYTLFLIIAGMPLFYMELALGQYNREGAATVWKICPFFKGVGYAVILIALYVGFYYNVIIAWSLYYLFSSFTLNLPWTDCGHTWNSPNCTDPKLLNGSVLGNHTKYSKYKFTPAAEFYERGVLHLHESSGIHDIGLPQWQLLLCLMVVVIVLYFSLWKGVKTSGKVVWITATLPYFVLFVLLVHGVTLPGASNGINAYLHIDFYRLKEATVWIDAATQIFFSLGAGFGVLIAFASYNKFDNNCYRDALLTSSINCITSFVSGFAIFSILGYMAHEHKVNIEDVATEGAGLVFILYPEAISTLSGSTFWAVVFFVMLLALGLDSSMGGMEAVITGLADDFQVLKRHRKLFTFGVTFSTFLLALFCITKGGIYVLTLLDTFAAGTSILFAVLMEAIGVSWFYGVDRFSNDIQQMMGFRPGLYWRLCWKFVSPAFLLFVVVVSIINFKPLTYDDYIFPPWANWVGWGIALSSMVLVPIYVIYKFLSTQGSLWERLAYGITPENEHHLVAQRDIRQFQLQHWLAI

Worked cases, answers included:
{"Compound": "CN[C@H]1Cc2cc(OC)ccc2[C@@H](c2ccc(Cl)c(Cl)c2)C1 (single isomer, unassigned) [Compound 32c.2]", "IC50": "112 nM"}
{"Compound": "CN[C@H]1CCc2ccccc2[C@H]1c1ccc(Cl)c(Cl)c1 (single isomer, unassigned) [Compound 36a]", "IC50": "3450 nM"}
{"Compound": "COc1ccc2c(c1)C[C@H](N(C)C)C[C@@H]2c1ccc(Cl)c(Cl)c1 (single isomer, unassigned) [Compound 33c.3]", "IC50": "906 nM"}

In: Recorded IC50 for CN[C@H]1Cc2ccc(OC)cc2[C@@H](c2ccc(Cl)c(Cl)c2)C1 (single isomer, unassigned) [Compound 32a.1] , please?
Out: 1210 nM

In: Moving on to the next compound: CN[C@H]1Cc2cc(OC)ccc2[C@@H](c2ccc(Cl)c(Cl)c2)C1 (stereo in doubt) [Compound 32c.3]
Out: 198 nM

In: Next entry: CC1C[C@@H](c2ccc(Cl)c(Cl)c2)c2ccccc2/C1=N\O (single isomer, unassigned) [Compound 57]
Out: 3890 nM

In: Then what about the compound COc1ccc2c(c1)C[C@H](N(C)C)C[C@@H]2c1ccc(Cl)c(Cl)c1 (single isomer, unassigned) [Compound 33c.4] ?
Out: 1900 nM

In: Also need COc1ccc2c(c1)C(c1ccc(Cl)c(Cl)c1)CC(N(C)C)C2 (single isomer, unassigned) [Compound 33a.4] , thanks.
Out: 1700 nM

In: Then this compound: CN[C@H]1Cc2ccc(OC)cc2[C@@H](c2ccc(Cl)c(Cl)c2)C1 (single isomer, unassigned) [Compound 32a.4]
Out: 786 nM
